Cited source for all entries: PubChem BioAssay AID504697

As shown below, each of these molecules has a reported EC50 value.
assayDetails: compound autofluorescence in calcium buffer – biochemical, fluorescence, no RTF in test wells, artefact control for cardiac thin filament activator project, dose response (AID 504697);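 note: emission near 535 nm under roughly 485 nm excitation as for IANBD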
runParameters: compound-only fluorescence in RTF assay buffer with Ca2+ (no RTF in test wells), artifact counterscreen
Activity calls are given as the source filed them.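 Rule for the calls: active = EC50 at or below 10 µM; inactive = EC50 above 10 µM.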

Some solved entries appear below for comparison.
State the recorded EC50 for this entry: O=C(COc1ccccc1F)NC1CC1
> 71.5 µM (inactive)

State the recorded EC50 for this entry: COCCn1c(=O)c2ccccc2c2ccccc2c1=O
> 71.5 µM (inactive)

State the recorded EC50 for this entry: Cc1ccc(C)c(N2CCN(C(=O)CN3C(=S)NC(C)(C)CC3C)CC2)c1 (configuration not stated)
> 71.5 µM (inactive)

Further cases:
State the recorded EC50 for this entry: Cc1ccc(C(=O)Nc2ccc3c(c2)ncn3C)cc1
> 71.4 µM (inactive)

State the recorded EC50 for this entry: CCC(C(=O)O)N1C(=O)/C(=C/c2cccn2C)SC1=S (configuration not stated)
35.3 µM (inactive)

State the recorded EC50 for this entry: CCCN1C=CC(=CC=C(C#N)C#N)C=C1
19.9 µM (inactive)

State the recorded EC50 for this entry: O=[n+]1c2c(n([O-])c3cc(F)c(N4CCCC4)cc31)CCC2
9.61 µM (active)

State the recorded EC50 for this entry: COc1ccc2ccccc2c1C(O)c1nccn1C (configuration not stated)
10.7 µM (inactive)

State the recorded EC50 for this entry: O=C(/C=C/c1nc2ccccc2s1)N1CCCCCC1
> 71.5 µM (inactive)

State the recorded EC50 for this entry: Cc1cccc(/C=N/n2c(-c3ccncc3)n[nH]c2=S)c1
> 71.5 µM (inactive)

State the recorded EC50 for this entry: COc1ccccc1/C=C/C=C1\Oc2c(ccc(O)c2CN2CCN(CCO)CC2)C1=O
3.63 µM (active)

State the recorded EC50 for this entry: Cc1ccc(N2C3=C(C(=O)CC(C)(C)C3)C(c3cn(C)nc3C)C3=C2CC(C)(C)CC3=O)cc1
17.1 µM (inactive)
